inhibition at 6 µM: recorded values
- Measured on: human RORγt LBD fused to the DNA binding domain of the GAL4 protein (Homo sapiens (Human))
- Sequence (P51449 258-518): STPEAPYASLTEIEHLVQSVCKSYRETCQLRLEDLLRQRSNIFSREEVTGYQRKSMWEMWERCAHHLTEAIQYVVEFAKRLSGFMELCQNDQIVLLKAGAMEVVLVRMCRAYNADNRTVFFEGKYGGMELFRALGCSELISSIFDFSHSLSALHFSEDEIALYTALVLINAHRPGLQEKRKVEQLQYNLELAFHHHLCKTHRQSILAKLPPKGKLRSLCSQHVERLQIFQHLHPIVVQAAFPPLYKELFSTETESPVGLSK
- Assay remarks: RORγt (LBD) reporter assay in HEK293T cells
- Format: cell-based
- Study conditions: HEK-293T, read-out: RORγt (LBD) Reporter Assay, % inhibition @ 6 μM, @ 6 μM
Form entry: value (%) — number only.

Use these answered entries as a reference point.
> print(dat)
                                   compound  readout.units  observed.measurement
1  COc1nc2ccc(C(O)(c3ccc(C)nc3C)c3cnnn3C)cc2c(Cl)c1CN1CCC(C(F)(F)F)CC1 (stereo not drawn) [Example 103a]              %                   101
2  COc1nc2ccc(C(O)(c3ccc(C)nc3C)c3cnnn3C)cc2c(Cl)c1CN1CCC(F)(F)CC1 (single isomer, unassigned) [Example 107b]              %                    38
3  COc1nc2ccc(C(O)(c3ccc(C)nc3C)c3cnnn3C)cc2c(Cl)c1OCCS(C)(=O)=O (single isomer, unassigned) [Example 70b]              %                    28
4  COc1nc2ccc(C(O)(c3ccc(C)nc3C)c3cnnn3C)cc2c(Cl)c1OCCN(C)C (single isomer, unassigned) [Example 74b]              %                    -9
5  COc1nc2ccc(C(O)(c3ccc(C)nc3C)c3cnnn3C)cc2c(Cl)c1OC1CCN(C)CC1 (single isomer, unassigned) [Example 65b]              %                    39

// sample COc1nc2ccc(C(O)(c3ccc(C)nc3C)c3cnnn3C)cc2c(Cl)c1OC1CCOCC1 (stereo not drawn) [Example 69a] , its inhibition at 6 µM was 57

// sample CC(=O)N1CCC(C(O)(c2ccc3nc(C(F)(F)F)c(C(=O)N4CCCCC4)c(C(F)(F)F)c3c2)c2cncn2C)CC1 (stereo not drawn) , its inhibition at 6 µM was 16

----------
pKd: recorded values
- Measured on: human RORγt ligand binding domain (RORγt LBD) (Homo sapiens (Human))
- Sequence (P51449 other isoform, or with tags, fused parts or gaps): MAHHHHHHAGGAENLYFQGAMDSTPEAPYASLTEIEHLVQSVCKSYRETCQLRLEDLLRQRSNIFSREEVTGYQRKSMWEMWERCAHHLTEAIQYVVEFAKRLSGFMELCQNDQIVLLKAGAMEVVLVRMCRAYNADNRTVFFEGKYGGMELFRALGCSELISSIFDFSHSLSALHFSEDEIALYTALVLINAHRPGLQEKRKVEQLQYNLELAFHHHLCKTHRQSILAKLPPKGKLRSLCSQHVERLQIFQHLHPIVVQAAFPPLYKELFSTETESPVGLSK
- Assay remarks: RORγt ThermoFluor assay (thermal shift, binding affinity Kd)
- Study conditions: read-out: ThermoFluor ® Assay, Kd
Friendly reminder that pKd comes from taking -log10 of the concentration in mol/L.

Use these answered entries as a reference point.
> print(dat)
                                   compound  observed.measurement
1  Cc1ncc(C(O)c2ccc3nc(Cl)c(OC(C)C)c(Cl)c3c2)n1C (stereo not shown) [Example 172]                  4.92
2  COc1nc2ccc(C(O)(c3ccc(C)nc3C)c3cnnn3C)cc2c(Cl)c1C(=O)N1CC(F)(F)C1 (stereo not shown) [Example 153]                  5.52
3  Cc1ccc(C(O)(c2ccc3nc(Cl)c(CC(F)(F)F)c(N4CCC4)c3c2)c2cnnn2C)c(C)n1 (single isomer, unassigned) [Example 238b]                  4.89
4  COc1nc2ccc(C(O)(c3cnc(C)n3C)c3cnc(C)n3C)cc2c(Cl)c1CNC(=O)CC(F)(F)F [Example 185]                  6.11
5  COc1nc2ccc(C(O)(c3ccc(C)nc3C)c3cnnn3C)cc2c(Cl)c1C(=O)N(C)C (stereo not shown) [Example 148]                  5.77
6  COc1nc2ccc(C(O)(c3cnc(C)n3C)c3cnc(C)n3C)cc2c(Cl)c1CNC(=O)CCC(F)(F)F [Example 186]                  6.23

In the following, a different compound is considered.
// sample COc1nc2ccc(C(O)(c3ccc(C(F)(F)F)nc3)c3cncn3C)cc2c(C#N)c1CN1CCC(C(F)(F)F)CC1 (single isomer, unassigned) [Example 191b] , its pKd was 7.01
